Biological target: Proteinase-activated receptor 1 (Homo sapiens, UniProt P25116)
Sequence (P25116 whole entry): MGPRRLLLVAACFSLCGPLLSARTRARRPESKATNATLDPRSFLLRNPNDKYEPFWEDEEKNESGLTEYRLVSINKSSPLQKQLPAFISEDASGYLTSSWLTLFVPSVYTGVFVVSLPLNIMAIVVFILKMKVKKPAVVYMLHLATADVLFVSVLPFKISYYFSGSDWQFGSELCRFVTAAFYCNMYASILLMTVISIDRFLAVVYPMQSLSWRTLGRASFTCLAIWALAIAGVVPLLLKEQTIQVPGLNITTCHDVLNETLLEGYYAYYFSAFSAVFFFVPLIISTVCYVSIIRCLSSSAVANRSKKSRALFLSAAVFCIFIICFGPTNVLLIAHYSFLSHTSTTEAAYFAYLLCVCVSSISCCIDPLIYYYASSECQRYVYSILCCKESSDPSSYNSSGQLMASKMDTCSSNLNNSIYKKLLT
Assay: Displacement of [3H]haTRAP from PAR1 in human platelet membrane
Format: cell membranes

[
  {
    "Compound": "C[C@H]1OC(=O)[C@@H]2C[C@@H]3CCCC[C@H]3[C@H](/C=C/c3ccc4cc(N)ccc4n3)[C@H]12",
    "IC50": "0.03 µM"
  },
  {
    "Compound": "C[C@H]1OC(=O)[C@@H]2C[C@@H]3CCCC[C@H]3[C@H](/C=C/c3ccc4cc(OCC(=O)NC5CC5)ccc4n3)[C@H]12",
    "IC50": "0.29 µM"
  },
  {
    "Compound": "COc1ccc2nc(/C=C/[C@H]3[C@@H]4CCCC[C@H]4C[C@H]4C(=O)O[C@H](C)[C@@H]34)ccc2c1Cl (racemic)",
    "IC50": "0.8 µM"
  },
  {
    "Compound": "C[C@H]1OC(=O)[C@@H]2C[C@@H]3CCCC[C@H]3[C@H](/C=C/c3ccc4cc(-c5cccs5)ccc4n3)[C@H]12",
    "IC50": "0.3 µM"
  },
  {
    "Compound": "C[C@H]1OC(=O)[C@@H]2C[C@@H]3CCCC[C@H]3[C@H](/C=C/c3ccc4cc(OCC(=O)N5CCOCC5)ccc4n3)[C@H]12",
    "IC50": "0.5 µM"
  },
  {
    "Compound": "Cc1cccc2ccc(/C=C/[C@H]3[C@@H]4CCCC[C@H]4C[C@H]4C(=O)O[C@H](C)[C@@H]34)nc12 (racemic)",
    "IC50": "0.39 µM"
  },
  {
    "Compound": "CCC(=O)Nc1ccc2nc(/C=C/[C@H]3[C@@H]4CCCC[C@H]4C[C@H]4C(=O)O[C@H](C)[C@@H]34)ccc2c1",
    "IC50": "0.068 µM"
  },
  {
    "Compound": "C[C@H]1OC(=O)[C@@H]2C[C@@H]3CCCC[C@H]3[C@H](/C=C/c3ccc4cc(OCC(N)=O)ccc4n3)[C@H]12",
    "IC50": "1 µM"
  },
  {
    "Compound": "COc1ccc2nc(/C=C/[C@H]3[C@@H]4CCCC[C@H]4C[C@H]4C(=O)O[C@H](C)[C@@H]34)ccc2c1OC",
    "IC50": "0.05 µM"
  },
  {
    "Compound": "C[C@H]1OC(=O)[C@@H]2C[C@@H]3CCCC[C@H]3[C@H](/C=C/c3ccc4cc(Cl)ccc4n3)[C@H]12 (racemic)",
    "IC50": "0.155 µM"
  },
  {
    "Compound": "C[C@H]1OC(=O)[C@@H]2C[C@@H]3CCCC[C@H]3[C@H](/C=C/c3ccc4cc(O)ccc4n3)[C@H]12",
    "IC50": "0.0063 µM"
  },
  {
    "Compound": "CCCC(=O)Nc1ccc2nc(/C=C/[C@H]3[C@@H]4CCCC[C@H]4C[C@H]4C(=O)O[C@H](C)[C@@H]34)ccc2c1",
    "IC50": "0.028 µM"
  },
  {
    "Compound": "C[C@H]1OC(=O)[C@@H]2C[C@@H]3CCCC[C@H]3[C@H](/C=C/c3ccc4cc(OC(C)(C)C(=O)Nc5ccccc5)ccc4n3)[C@H]12",
    "IC50": "0.5 µM"
  },
  {
    "Compound": "CC(=O)Nc1ccc2nc(/C=C/[C@H]3[C@@H]4CCCC[C@H]4C[C@H]4C(=O)O[C@H](C)[C@@H]34)ccc2c1",
    "IC50": "0.1 µM"
  },
  {
    "Compound": "COc1cccc2ccc(/C=C/[C@H]3[C@@H]4CCCC[C@H]4C[C@H]4C(=O)O[C@H](C)[C@@H]34)nc12 (racemic)",
    "IC50": "0.7 µM"
  },
  {
    "Compound": "C[C@H]1OC(=O)[C@@H]2C[C@@H]3CCCC[C@H]3[C@H](/C=C/c3ccc4cc(NC(=O)C(C)(C)C)ccc4n3)[C@H]12",
    "IC50": "2.15 µM"
  },
  {
    "Compound": "C[C@H]1OC(=O)[C@@H]2C[C@@H]3CCCC[C@H]3[C@H](/C=C/c3ccc4cc(NC(=O)c5ccccc5)ccc4n3)[C@H]12",
    "IC50": "0.219 µM"
  },
  {
    "Compound": "Cc1ccc2ccc(/C=C/[C@H]3[C@@H]4CCCC[C@H]4C[C@H]4C(=O)O[C@H](C)[C@@H]34)nc2c1 (racemic)",
    "IC50": "0.15 µM"
  },
  {
    "Compound": "C[C@H]1OC(=O)[C@@H]2C[C@@H]3CCCC[C@H]3[C@H](/C=C/c3ccc4cc(OCCNC(=O)OC(C)(C)C)ccc4n3)[C@H]12 (racemic)",
    "IC50": "0.275 µM"
  },
  {
    "Compound": "C[C@H]1OC(=O)[C@@H]2C[C@@H]3CCCC[C@H]3[C@H](/C=C/c3ccc4cc(OCC(=O)Nc5ccccc5)ccc4n3)[C@H]12",
    "IC50": "0.025 µM"
  },
  {
    "Compound": "CCOc1ccc2nc(/C=C/[C@H]3[C@@H]4CCCC[C@H]4C[C@H]4C(=O)O[C@H](C)[C@@H]34)ccc2c1 (racemic)",
    "IC50": "0.125 µM"
  },
  {
    "Compound": "C[C@H]1OC(=O)[C@@H]2C[C@@H]3CCCC[C@H]3[C@H](/C=C/c3ccc4cc(OCc5ccccc5)ccc4n3)[C@H]12",
    "IC50": "1.25 µM"
  },
  {
    "Compound": "C[C@H]1OC(=O)[C@@H]2C[C@@H]3CCCC[C@H]3[C@H](/C=C/c3ccc4cc(OCC(=O)O)ccc4n3)[C@H]12",
    "IC50": "0.029 µM"
  },
  {
    "Compound": "C[C@H]1OC(=O)[C@@H]2C[C@@H]3CCCC[C@H]3[C@H](/C=C/c3ccc4cc(-c5cccc(C(F)(F)F)c5)ccc4n3)[C@H]12",
    "IC50": "0.3 µM"
  },
  {
    "Compound": "C[C@H]1OC(=O)[C@@H]2C[C@@H]3CCCC[C@H]3[C@H](/C=C/c3ccc4cc(F)ccc4n3)[C@H]12 (racemic)",
    "IC50": "0.73 µM"
  },
  {
    "Compound": "C[C@H]1OC(=O)[C@@H]2C[C@@H]3CCCC[C@H]3[C@H](/C=C/c3ccc4cc(-c5ccsc5)ccc4n3)[C@H]12",
    "IC50": "0.05 µM"
  },
  {
    "Compound": "C[C@H]1OC(=O)[C@@H]2C[C@@H]3CCCC[C@H]3[C@H](/C=C/c3ccc4cc(OC(C)(C)C(N)=O)ccc4n3)[C@H]12",
    "IC50": "0.8 µM"
  }
]
